Tested on: UO-31
Experiment: NCI 60 cell panel SRB screen
Format: cell-based
Details: Homo sapiens; UO-31, 5 log dose, 48 h; read-out: LC50 (the source's name)
Recorded measurements of CC50, one per entry

Compound	Modifier Sign	CC50 (µM)
COc1cccc(NCc2nnc(Nc3ccc(Cl)cc3)c3ccccc23)c1 [Compound 16d]	>	25
Clc1ccc(Nc2nnc(CNc3ccccc3)c3ccccc23)cc1 [Compound 16a]	=	23.8
O=C(Nc1ccccc1)Nc1ccc(Oc2nnc(Cl)c3ccccc23)cc1 [Compound 13a]	>	25
Cc1nnc(Nc2ccc(NC(=O)Nc3ccc(Cl)cc3)cc2)c2ccccc12	=	31.8
Clc1ccc(Nc2nnc(COc3ccccc3)c3ccccc23)cc1 [Compound 17a]	=	23.9
O=C(Nc1ccc(Cl)cc1)Nc1ccc(Nc2nncc3ccccc23)cc1	>	100

These entries and their values trace back to paper PMC6691788.
